Can you tell me Anti HA serum antigen value (average value ± S.D.) for the items I'm about to list?
# Test system: influenza HA vaccine (B/Nagasaki/1/87 strain)
# Assay type: in vivo, female CDF1 mice
# ASSAY_CONDITIONS: Experiment 2; 3 W; 8000-fold dilution
Please format your answer as a value with the unit trailing.

For every listed record, write down its Anti HA serum antigen value (average value ± S.D.).
1. CCCCCCCCCCCCCCCCCC(=O)OC[C@H]1O[C@H](OC(=O)C[C@@H](CCCCCCCCCCC)OC(=O)CCCCCCCCCCCCC)[C@H](NC(C)=O)[C@@H](O[C@H](C)C(=O)N[C@@H](C)C(=O)N[C@H](CCC(=O)OC)C(N)=O)[C@@H]1O
2. CCCCCCCCCCCCCCCC(=O)O[C@H](CCCCCCCCCCC)CC(=O)O[C@H]1O[C@H](CO)[C@@H](O)[C@H](O[C@H](C)C(=O)N[C@@H](C)C(=O)N[C@H](CCC(=O)OC)C(N)=O)[C@H]1NC(C)=O

Solution:
1. 0.054 ± 0.001 O.D 415 nm
2. 0.191 ± 0.001 O.D 415 nm
